system-under-test: C-X-C chemokine receptor type 3 (Homo sapiens)
Sequence (P49682 whole entry): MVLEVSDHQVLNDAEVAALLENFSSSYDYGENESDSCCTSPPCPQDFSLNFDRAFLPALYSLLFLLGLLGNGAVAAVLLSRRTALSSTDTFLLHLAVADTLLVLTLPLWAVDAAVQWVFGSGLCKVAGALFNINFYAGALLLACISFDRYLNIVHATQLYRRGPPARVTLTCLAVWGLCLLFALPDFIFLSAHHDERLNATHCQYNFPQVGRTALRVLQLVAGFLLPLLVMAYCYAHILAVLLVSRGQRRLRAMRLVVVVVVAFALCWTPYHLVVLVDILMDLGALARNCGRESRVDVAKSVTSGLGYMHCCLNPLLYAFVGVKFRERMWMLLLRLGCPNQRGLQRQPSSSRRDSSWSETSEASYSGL
experiment-description: Antagonist activity at human CXCR3 expressed in CHO cells assessed as inhibition of ITAC-stimulated [35S]GTPgammaS binding pretreated 30 mins before ITAC challenge
Type: functional, cell-based
Output satisfied for records whose IC50 is lower than 1 µM, not satisfied for records at or above 1 µM.

- compound: "COc1cccc(C2(C3CCN(Cc4ccc(Br)cc4)CC3)CCC(=O)NC2=O)c1 (racemic)"
  assigned-class: "not satisfied"
- compound: "O=C1CCC(c2cccc(Cl)c2)(C2CCN(Cc3ccc(Br)cc3)CC2)C(=O)N1 (racemic)"
  assigned-class: "not satisfied"
- compound: "O=C1CCC(c2ccccc2)(C2CCN(Cc3ccc(Br)cc3)CC2)C(=O)N1 (single isomer, unassigned; (+))"
  assigned-class: "not satisfied"
- compound: "NC(=O)CN1CCCC(c2ccccc2)(C2CCN(Cc3ccc(Br)cc3)CC2)C1 (single isomer, unassigned; (-))"
  assigned-class: "satisfied"
- compound: "O=C1CCC(c2ccccc2)(C2CCN(Cc3ccc(Cl)cc3Cl)CC2)C(=O)N1 (racemic)"
  assigned-class: "not satisfied"
- compound: "Cc1ccc(CN2CCC(C3(c4ccccc4)CCC(=O)NC3=O)CC2)cc1 (racemic) [MELETIMIDE]"
  assigned-class: "not satisfied"
- compound: "O=C(C1CC1)N1CCCC(c2ccccc2)(C2CCN(Cc3ccc(Br)cc3)CC2)C1 (racemic)"
  assigned-class: "satisfied"
- compound: "CC(=O)N1CCCC(c2ccccc2)(C2CCN(Cc3ccc(Br)cc3)CC2)C1 (racemic)"
  assigned-class: "satisfied"
